Reference for the values: ChEMBL document CHEMBL4190331

assay: AUC in CD-1 mouse at 5 mg/kg, po administered as single dose; assay type: ADME, organism-based; conditions: in vivo
resultType: AUC (µM·h)
Give bare numbers, in µM·h.

# lookup: AUC of O=S1(=O)N(CCCCCOc2ccc(-c3ccc(Cl)cc3)cc2)CCN1c1ccncc1
6.17

###

assay: Clearance in CD-1 mouse at 2 mg/kg, iv administered as single dose; type: ADME, organism-based; settings: in vivo
resultType: log10(clearance) (log10 of the value in mL/min/kg)
Log scale reminder: clearance in mL/min/kg, then log10 taken.

Look over these answered cases.
- compound: "CCO/N=C/c1ccc(OCCC(C)CCN2CCN(c3ccnc(N)c3)C2=O)cc1 (configuration not stated)"
  log10(clearance): 2.02
- compound: "O=C1N(CCCCCOc2ccc(-c3ccc(Cl)cc3)cc2)CCN1c1ccncc1"
  log10(clearance): 1.45
- compound: "O=C1N(CCCCC2CCc3cc(-c4ccc(Cl)cc4)ccc3O2)CCN1c1ccncc1 (configuration not stated)"
  log10(clearance): 0.78

Provide log10(clearance) values for the following items, in order.
1. O=S1(=O)N(CCCCCOc2ccc(-c3ccc(Cl)cc3)cc2)CCN1c1ccncc1
2. CCO/N=C1\CCc2cc(OCCCCCN3CCN(c4ccnc(N)c4)S3(=O)=O)ccc21
3. CCO/N=C/c1ccc(OCCCCCN2CCN(c3ccnc(N)c3)S2(=O)=O)cc1

1: 1.08; 2: 1.53; 3: 1.56

Form field: reported log10(clearance) of O=C1CN(c2ccncc2)CCN1CCCCCOc1ccc(-c2ccc(Cl)cc2)cc1
1.32

###

assay: Cytotoxicity against human RD cells assessed as reduction in cell viability after 72 hrs by CCK-8 assay; settings: rd
So I've got a bunch of molecules here, and I need their CC50 at 72 h values.
One number for each entry, in µM.

- molecule: "CCO/N=C/c1ccc(OCCC(C)CCN2CCN(c3ccnc(N)c3)C2=O)cc1 (stereo not given)"
  unitDescriptor: "µM"
  CC50 at 72 h: 5
- molecule: "O=C1N(CCCCC2CCc3cc(-c4ccc(Cl)cc4)ccc3O2)CCN1c1ccncc1 (stereo not given)"
  unitDescriptor: "µM"
  CC50 at 72 h: 3.4
- molecule: "O=C1CN(c2ccncc2)CCN1CCCCCOc1ccc(-c2ccc(Cl)cc2)cc1"
  unitDescriptor: "µM"
  CC50 at 72 h: 3.2

Would you kindly look at the next entry?
// query CC50 at 72 h value for entry CCO/N=C1\CCc2cc(OCCCCCN3CCN(c4ccnc(N)c4)S3(=O)=O)ccc21
42

###

test: Volume of distribution in CD-1 mouse at 2 mg/kg, iv administered as single dose; type: ADME, organism-based; conditions: in vivo
resultType: Vd
Phrase the answer as number then unit, nothing more needed.

- molecule: "O=C1N(CCCCCOc2ccc(-c3ccc(Cl)cc3)cc2)CCN1c1ccncc1"
  result: "9 L/kg"
- molecule: "CCO/N=C/c1ccc(OCCC(C)CCN2CCN(c3ccnc(N)c3)C2=O)cc1 (configuration not stated)"
  result: "2.4 L/kg"
- molecule: "O=S1(=O)N(CCCCCOc2ccc(-c3ccc(Cl)cc3)cc2)CCN1c1ccncc1"
  result: "5 L/kg"

The following molecules each have a reported value; give each one's Vd.
1. CCO/N=C1\CCc2cc(OCCCCCN3CCN(c4ccnc(N)c4)S3(=O)=O)ccc21
2. CCO/N=C/c1ccc(OCCCCCN2CCN(c3ccnc(N)c3)S2(=O)=O)cc1
3. O=C1N(CCCCC2CCc3cc(-c4ccc(Cl)cc4)ccc3O2)CCN1c1ccncc1 (configuration not stated)
4. O=C1CN(c2ccncc2)CCN1CCCCCOc1ccc(-c2ccc(Cl)cc2)cc1

2.8 L/kg
3.2 L/kg
3 L/kg
10 L/kg

###

test: Cmax in CD-1 mouse at 5 mg/kg, po administered as single dose; assay type: ADME, organism-based; set-up: dose 5 mg/kg, route oral; conditions: in vivo
resultType: Cmax

Item O=S1(=O)N(CCCCCOc2ccc(-c3ccc(Cl)cc3)cc2)CCN1c1ccncc1 has what recorded Cmax?
617 nM

###

assay: AUC in CD-1 mouse at 2 mg/kg, iv administered as single dose; type: ADME, organism-based; settings: in vivo
resultType: AUC

// solved cases for AUC follow
- compound: "O=S1(=O)N(CCCCCOc2ccc(-c3ccc(Cl)cc3)cc2)CCN1c1ccncc1"
  result: "5.71 µM·h"
- compound: "O=C1CN(c2ccncc2)CCN1CCCCCOc1ccc(-c2ccc(Cl)cc2)cc1"
  result: "3.34 µM·h"
- compound: "O=C1N(CCCCCOc2ccc(-c3ccc(Cl)cc3)cc2)CCN1c1ccncc1"
  result: "2.73 µM·h"

For each of the items listed, what is its AUC?
1. CCO/N=C/c1ccc(OCCCCCN2CCN(c3ccnc(N)c3)S2(=O)=O)cc1
2. O=C1N(CCCCC2CCc3cc(-c4ccc(Cl)cc4)ccc3O2)CCN1c1ccncc1 (configuration not stated)
3. CCO/N=C1\CCc2cc(OCCCCCN3CCN(c4ccnc(N)c4)S3(=O)=O)ccc21

1: 0.592 µM·h; 2: 11 µM·h; 3: 0.821 µM·h

// AUC lookup, key: CCO/N=C/c1ccc(OCCC(C)CCN2CCN(c3ccnc(N)c3)C2=O)cc1 (configuration not stated)
0.371 µM·h

###

assay: […] bioavailability in CD-1 mouse at 5 mg/kg, ip administered as single dose; type: ADME, organism-based; details: in vivo, intraperitoneal
resultType: bioavailability

Example cases with answers are listed next.
- compound: "O=S1(=O)N(CCCCCOc2ccc(-c3ccc(Cl)cc3)cc2)CCN1c1ccncc1"
  resultType: "bioavailability"
  result: "63%"
- compound: "CCO/N=C/c1ccc(OCCCCCN2CCN(c3ccnc(N)c3)S2(=O)=O)cc1"
  resultType: "bioavailability"
  result: "79%"
- compound: "CCO/N=C/c1ccc(OCCC(C)CCN2CCN(c3ccnc(N)c3)C2=O)cc1 (configuration not stated)"
  resultType: "bioavailability"
  result: "92%"
- compound: "O=C1N(CCCCCOc2ccc(-c3ccc(Cl)cc3)cc2)CCN1c1ccncc1"
  resultType: "bioavailability"
  result: "64%"
- compound: "O=C1N(CCCCC2CCc3cc(-c4ccc(Cl)cc4)ccc3O2)CCN1c1ccncc1 (configuration not stated)"
  resultType: "bioavailability"
  result: "86%"

I need bioavailability for every entry listed below, if you could help.
1. O=C1CN(c2ccncc2)CCN1CCCCCOc1ccc(-c2ccc(Cl)cc2)cc1
2. CCO/N=C1\CCc2cc(OCCCCCN3CCN(c4ccnc(N)c4)S3(=O)=O)ccc21

["112%", "88%"]

###

assay: Tmax in CD-1 mouse at 5 mg/kg, ip administered as single dose; type: ADME, organism-based; settings: in vivo
resultType: Tmax (h)
Numbers only, in h.

- compound: "O=C1N(CCCCCOc2ccc(-c3ccc(Cl)cc3)cc2)CCN1c1ccncc1"
  quantitativeResult: 2
- compound: "O=C1CN(c2ccncc2)CCN1CCCCCOc1ccc(-c2ccc(Cl)cc2)cc1"
  quantitativeResult: 2
- compound: "CCO/N=C/c1ccc(OCCCCCN2CCN(c3ccnc(N)c3)S2(=O)=O)cc1"
  quantitativeResult: 0.5

Provide each entry's Tmax from the list below.
1. CCO/N=C1\CCc2cc(OCCCCCN3CCN(c4ccnc(N)c4)S3(=O)=O)ccc21
2. O=S1(=O)N(CCCCCOc2ccc(-c3ccc(Cl)cc3)cc2)CCN1c1ccncc1
3. O=C1N(CCCCC2CCc3cc(-c4ccc(Cl)cc4)ccc3O2)CCN1c1ccncc1 (configuration not stated)
4. CCO/N=C/c1ccc(OCCC(C)CCN2CCN(c3ccnc(N)c3)C2=O)cc1 (configuration not stated)

[0.7, 2, 1, 0.3]

###

experiment: Stability in mouse liver microsomes; format: ADME, microsome
resultType: Stability

- compound: "O=C1CN(c2ccncc2)CCN1CCCCCOc1ccc(-c2ccc(Cl)cc2)cc1"
  resultType: "Stability"
  result: "40 to 50 µL/min/mg"
- compound: "O=S1(=O)N(CCCCCOc2ccc(-c3ccc(Cl)cc3)cc2)CCN1c1ccncc1"
  resultType: "Stability"
  result: "< 10 µL/min/mg"
- compound: "O=C1N(CCCCCOc2ccc(-c3ccc(Cl)cc3)cc2)CCN1c1ccncc1"
  resultType: "Stability"
  result: "40 to 50 µL/min/mg"

Note: attention shifts to another entry.
For O=C1N(CCCCC2CCc3cc(-c4ccc(Cl)cc4)ccc3O2)CCN1c1ccncc1 (centres undefined) , what is its reported Stability?
40 to 50 µL/min/mg

###

target: Voltage-gated inwardly rectifying potassium channel KCNH2 (Homo sapiens); assay: Inhibition of human ERG expressed in CHO-K1 cells by Qpatch assay
Sequence (Q12809 whole entry): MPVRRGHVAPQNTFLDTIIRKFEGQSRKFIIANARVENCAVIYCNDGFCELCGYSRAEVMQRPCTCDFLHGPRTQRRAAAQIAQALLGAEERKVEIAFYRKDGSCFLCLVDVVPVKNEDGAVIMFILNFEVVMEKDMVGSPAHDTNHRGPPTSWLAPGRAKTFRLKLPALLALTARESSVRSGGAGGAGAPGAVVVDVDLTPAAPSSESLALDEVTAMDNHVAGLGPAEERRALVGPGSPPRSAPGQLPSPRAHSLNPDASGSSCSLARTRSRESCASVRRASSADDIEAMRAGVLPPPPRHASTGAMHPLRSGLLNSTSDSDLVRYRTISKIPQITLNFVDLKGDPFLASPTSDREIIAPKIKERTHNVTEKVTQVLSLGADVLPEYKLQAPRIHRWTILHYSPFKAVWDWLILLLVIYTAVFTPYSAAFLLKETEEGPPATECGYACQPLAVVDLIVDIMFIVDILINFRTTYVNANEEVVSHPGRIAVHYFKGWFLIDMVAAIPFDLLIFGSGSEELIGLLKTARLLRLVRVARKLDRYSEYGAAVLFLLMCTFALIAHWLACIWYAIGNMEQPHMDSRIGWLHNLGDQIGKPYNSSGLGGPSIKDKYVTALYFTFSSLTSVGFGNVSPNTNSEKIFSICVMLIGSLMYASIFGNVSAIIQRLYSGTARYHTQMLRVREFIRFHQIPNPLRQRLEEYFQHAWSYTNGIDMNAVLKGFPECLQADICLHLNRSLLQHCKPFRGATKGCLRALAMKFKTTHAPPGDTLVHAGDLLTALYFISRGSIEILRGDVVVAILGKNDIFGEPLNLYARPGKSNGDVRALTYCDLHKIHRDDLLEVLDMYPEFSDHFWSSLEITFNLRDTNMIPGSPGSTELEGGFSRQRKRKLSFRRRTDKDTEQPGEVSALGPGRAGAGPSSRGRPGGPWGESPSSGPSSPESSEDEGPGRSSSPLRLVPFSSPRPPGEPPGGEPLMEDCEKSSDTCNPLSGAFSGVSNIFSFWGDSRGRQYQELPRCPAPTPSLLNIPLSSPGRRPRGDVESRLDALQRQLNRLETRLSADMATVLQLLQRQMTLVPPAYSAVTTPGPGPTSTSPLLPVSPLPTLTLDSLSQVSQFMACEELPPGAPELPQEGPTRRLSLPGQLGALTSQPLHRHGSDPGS
resultType: IC50

Reported IC50, compound O=S1(=O)N(CCCCCOc2ccc(-c3ccc(Cl)cc3)cc2)CCN1c1ccncc1 : ____
> 30 µM
